# ASSAYED_TARGET: S. pneumoniae Topoisomerase IV ATPase (ParE) (Streptococcus pneumoniae serotype 4, UniProt Q59961)
# Sequence (Q59961 whole entry): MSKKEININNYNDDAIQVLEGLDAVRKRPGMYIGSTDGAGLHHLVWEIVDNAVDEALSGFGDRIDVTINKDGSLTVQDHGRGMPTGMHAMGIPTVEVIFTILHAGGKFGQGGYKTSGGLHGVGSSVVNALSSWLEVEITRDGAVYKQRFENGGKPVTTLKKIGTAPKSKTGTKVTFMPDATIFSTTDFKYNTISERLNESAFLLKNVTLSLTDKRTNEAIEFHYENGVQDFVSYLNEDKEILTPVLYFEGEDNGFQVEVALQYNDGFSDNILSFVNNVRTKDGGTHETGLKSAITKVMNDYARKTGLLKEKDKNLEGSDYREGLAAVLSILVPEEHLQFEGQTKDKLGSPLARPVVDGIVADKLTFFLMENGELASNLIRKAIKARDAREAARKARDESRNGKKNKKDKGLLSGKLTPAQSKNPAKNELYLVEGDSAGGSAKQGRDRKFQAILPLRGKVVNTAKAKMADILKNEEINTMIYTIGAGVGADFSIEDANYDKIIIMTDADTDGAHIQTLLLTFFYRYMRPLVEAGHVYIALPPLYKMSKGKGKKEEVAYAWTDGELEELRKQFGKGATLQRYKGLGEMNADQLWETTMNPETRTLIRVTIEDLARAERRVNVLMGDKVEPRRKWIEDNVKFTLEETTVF
# PROTOCOL_SUMMARY: S. pneumoniae Topoisomerase IV ATPase inhibition
# Type: biochemical
# ASSAY_CONDITIONS: values marked * are an average of two or more data points, read-out: % Inh (13 μM) of S. pneumoniae Topoisomerase IV ATPase
Classify by measured inhibition at 13 µM: 1 if it is equal to or exceeds 90%, -1 if it is smaller.

Here are 5 molecules together with their reported answers.
{"MOLECULE": "COc1cc(C)cc(Nc2ncc(-c3cnc(OC)c(C(=O)NS(C)(=O)=O)c3)c(-n3ccc(C(F)(F)F)n3)n2)c1 [Example 856]", "LABEL": 1}
{"MOLECULE": "O=C(O)c1cncc(-c2cnc(Nc3ccc(F)c(Cl)c3)nc2N2CCC(O)C2)c1 (stereo not drawn) [Example 250]", "LABEL": -1}
{"MOLECULE": "O=C(O)[C@@H]1CCCN1c1cccc(-c2cnc(Nc3ccc(F)c(Cl)c3)nc2-n2ccc(C(F)(F)F)n2)c1 [Example 599]", "LABEL": 1}
{"MOLECULE": "CCC(C)Nc1nc(Nc2ccc(F)c(Cl)c2)ncc1-c1ccc(Cl)c(NC(=O)OC(C)(C)C)c1 (stereo not drawn) [Example 1110]", "LABEL": 1}
{"MOLECULE": "COc1ncc(-c2cnc(Nc3ccc(F)c(Cl)c3)nc2NCc2ccncc2C)cn1 [Example 463]", "LABEL": -1}

Hello, I need to know if Cc1cnc(C(=O)NCCCNc2nc(Nc3ccc(F)c(Cl)c3)ncc2-c2cccc(/C=C/C(=O)O)c2)cn1 [Example 292] has measured inhibition at 13 µM not below 90%. Thanks!
-1

Hello, I need to know if CN1CCN(CCn2cc(C(=O)O)c(=O)c3cc(-c4cnc(Nc5ccc(F)c(Cl)c5)nc4-n4ccc(C(F)(F)F)n4)ccc32)CC1 [Example 1071] has measured inhibition at 13 µM not below 90%. Thanks!
1

Hello, I need to know if Cc1cc(C(F)(F)F)nn1-c1nc(Nc2ccc(F)c(Cl)c2)ncc1-c1cnc(OCCS(C)(=O)=O)c(C(=O)O)c1 [Example 956] has measured inhibition at 13 µM not below 90%. Thanks!
1

Hello, I need to know if COc1cc(Nc2ncc(-c3cnc(OC)c(C(=O)NS(=O)(=O)C(C)C)c3)c(-n3ccc(C(F)(F)F)n3)n2)cc(OC)c1 [Example 818] has measured inhibition at 13 µM not below 90%. Thanks!
1

Hello, I need to know if Cc1cc(C(F)(F)F)nn1-c1nc(Nc2ccc3c(c2)CCC3)ncc1-c1cncc(C(=O)O)c1 [Example 669] has measured inhibition at 13 µM not below 90%. Thanks!
-1

Hello, I need to know if O=C(O)/C=C/c1cccc(-c2cnc(Nc3ccc(F)c(CO)c3)nc2N2CCOCC2)c1 [Example 516] has measured inhibition at 13 µM not below 90%. Thanks!
1

Hello, I need to know if COc1cc(Nc2ncc(-c3cnc(OC)c(C(=O)NCCS(C)(=O)=O)c3)c(-n3nc(C(F)(F)F)cc3C)n2)cc(OC)c1 [Example 812] has measured inhibition at 13 µM not below 90%. Thanks!
1

Hello, I need to know if O=C(O)c1cncc(-c2cnc(Nc3ccc(F)c(Cl)c3)nc2NCCc2ccccn2)c1 [Example 228] has measured inhibition at 13 µM not below 90%. Thanks!
-1

Hello, I need to know if O=C(O)c1cncc(-c2cnc(Nc3cc(F)cc(F)c3)nc2N2CCOCC2)c1 [Example 388] has measured inhibition at 13 µM not below 90%. Thanks!
-1

Hello, I need to know if COc1cc(C)cc(Nc2ncc(-c3cnc(OC)c(C(=O)O)c3)c(-n3nc(C(F)(F)F)cc3C)n2)c1 [Example 761] has measured inhibition at 13 µM not below 90%. Thanks!
1
